Origin of the recorded values: patent US12091411B2

# measured.on: IRAK4 (Homo sapiens)
# Construct: Degradation of IRAK4 in OCI-LY10 was quantitatively measured using Meso Scale Discovery technology; endogenous in cells; host or cells: OCI-LY10
# Sequence (Q9NWZ3 whole entry): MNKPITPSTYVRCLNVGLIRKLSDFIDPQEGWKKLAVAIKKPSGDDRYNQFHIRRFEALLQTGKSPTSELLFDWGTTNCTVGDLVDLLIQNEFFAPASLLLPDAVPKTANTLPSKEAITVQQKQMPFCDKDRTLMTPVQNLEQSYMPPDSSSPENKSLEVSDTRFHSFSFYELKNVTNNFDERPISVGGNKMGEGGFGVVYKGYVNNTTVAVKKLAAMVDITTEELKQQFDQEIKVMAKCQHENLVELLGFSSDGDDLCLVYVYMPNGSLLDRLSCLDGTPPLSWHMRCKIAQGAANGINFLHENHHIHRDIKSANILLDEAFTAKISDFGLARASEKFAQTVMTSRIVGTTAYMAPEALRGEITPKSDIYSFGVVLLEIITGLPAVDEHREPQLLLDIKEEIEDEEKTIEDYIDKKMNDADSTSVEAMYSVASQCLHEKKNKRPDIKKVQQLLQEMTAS
# assay.method.text: IRAK4 MSD Degradation in OCI-LY10
# Assay type: cell-based
# assay.setup: OCI-LY10 cells, 24 hrs incubation, MSD; read-out: IRAK4 degradation in OCI-LY10 at 24 hrs: DC50
# Procedure: Degradation of IRAK4 in OCI-LY10 was quantitatively measured using Meso Scale Discovery technology. […] Compounds were then added to the assay plates with a final top concentration of 1 to 10 μM in a 1:3 dilution series with total of 8 doses. […] The assay plates were then incubated at room temperature for 1 hour, washed 3 times with 150 μL/well TBST buffer, and 150 μL/well MSD reading buffer (Meso Scale Discovery catalog number R92TC-2) was added. […]
measure.name: DC50

Name the recorded DC50 for COc1nc(NC(=O)c2cccc(C)n2)cc2cn([C@H]3CC[C@H](CN4CCC(c5cccc6c5n(C)c(=O)n6C5CCC(=O)NC5=O)C(F)(F)C4)CC3)nc12 (stereo partly shown) . > 200 nM

Name the recorded DC50 for COc1cc2nn([C@H]3CC[C@H](CN4CCC5(CC4)CCN(c4cccc6c4n(C)c(=O)n6C4CCC(=O)NC4=O)CC5)CC3)cc2cc1NC(=O)c1cc(F)cc(C#N)c1 (stereo partly shown) . < 10 nM

Name the recorded DC50 for CN(C[C@H]1CC[C@H](n2cc(NC(=O)c3cnn4ccc(N5C[C@@H]6C[C@H]5CO6)nc34)c(C(F)F)n2)CC1)C1CCN(c2cccc3c2n(C)c(=O)n3C2CCC(=O)NC2=O)CC1(F)F (stereo partly shown) . 10 to 100 nM

Name the recorded DC50 for Cn1c(=O)n(C2CCC(=O)NC2=O)c2cccc(N3CC(CO[C@H]4CCN(C[C@H]5CC[C@H](n6cc(NC(=O)c7cnn8ccc(N9C[C@H]%10CC9CO%10)nc78)c(C(F)F)n6)CC5)C[C@@H]4F)C3)c21 (stereo partly shown) . < 10 nM

Name the recorded DC50 for CN(C[C@H]1CC[C@H](n2cc(NC(=O)c3cnn4ccc(N5C[C@H]6CC[C@@H](C5)O6)nc34)c(C(F)F)n2)CC1)C1CCN(c2cccc3c2n(C)c(=O)n3C2CCC(=O)NC2=O)CC1 (stereo partly shown) . < 10 nM

Name the recorded DC50 for Cn1c(=O)n(C2CCC(=O)NC2=O)c2cccc(C#CCN3CCN(C[C@H]4CC[C@H](n5cc(NC(=O)c6cccc(C#N)n6)c(C(F)F)n5)CC4)CC3)c21 (stereo partly shown) . > 200 nM

Name the recorded DC50 for Cn1c(=O)n(C2CCC(=O)NC2=O)c2cccc([C@@H]3CCN(C[C@H]4CC[C@H](n5cc6cc(NC(=O)c7cccc(C(F)(F)F)n7)ncc6n5)CC4)C[C@H]3F)c21 (single isomer, unassigned) . < 10 nM

Name the recorded DC50 for Cn1c(=O)n(C2CCC(=O)NC2=O)c2cccc(C[C@@H]3CN(C[C@H]4CC[C@H](n5cc(NC(=O)c6cnn7cccnc67)c(C(F)F)n5)CC4)CCO3)c21 (stereo partly shown) . > 200 nM

Name the recorded DC50 for Cn1c(=O)n(C2CCC(=O)NC2=O)c2cccc(C#CCOc3ccc(CN4CCC(n5cc(NC(=O)c6cnn7ccc(N8CC9C[C@@H]8CO9)nc67)c(C(F)F)n5)CC4)cc3)c21 (stereo partly shown) . > 200 nM

Name the recorded DC50 for Cn1c(=O)n(C2CCC(=O)NC2=O)c2cccc(C#CCN3CCN(C[C@H]4CC[C@H](n5cc(NC(=O)c6cnn7ccc(N8CC9(CC9)C8)nc67)c(C(F)F)n5)CC4)CC3)c21 (stereo partly shown) . < 10 nM
